# IC50 per entry
biological target: Human Calpain 2/NS1 (Homo sapiens); experiment: Calpain inhibition continuous fluorescence (FRET) assay, Human Calpain 2/NS1; format: biochemical; details: Column B; read-out: Human Calpain 2/NS1 IC50
Sequence (P17655 whole entry): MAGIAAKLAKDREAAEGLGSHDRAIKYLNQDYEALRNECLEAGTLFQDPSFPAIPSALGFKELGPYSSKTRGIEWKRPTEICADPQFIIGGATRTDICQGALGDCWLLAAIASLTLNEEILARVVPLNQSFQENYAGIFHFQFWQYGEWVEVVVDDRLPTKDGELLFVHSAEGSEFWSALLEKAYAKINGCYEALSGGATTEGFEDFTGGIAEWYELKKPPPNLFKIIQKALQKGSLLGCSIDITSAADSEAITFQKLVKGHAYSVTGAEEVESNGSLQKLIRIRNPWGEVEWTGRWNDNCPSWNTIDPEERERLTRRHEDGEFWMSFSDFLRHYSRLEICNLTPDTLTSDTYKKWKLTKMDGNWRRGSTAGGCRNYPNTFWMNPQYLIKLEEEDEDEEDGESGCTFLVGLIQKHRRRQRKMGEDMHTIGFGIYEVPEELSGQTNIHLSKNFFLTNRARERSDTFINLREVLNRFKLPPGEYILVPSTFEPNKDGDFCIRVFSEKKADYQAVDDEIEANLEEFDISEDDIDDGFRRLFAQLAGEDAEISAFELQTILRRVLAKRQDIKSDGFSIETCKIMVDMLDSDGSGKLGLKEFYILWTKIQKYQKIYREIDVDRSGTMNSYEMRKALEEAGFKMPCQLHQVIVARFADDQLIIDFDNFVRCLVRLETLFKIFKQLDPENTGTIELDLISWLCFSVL
Sequence (P04632 whole entry partner): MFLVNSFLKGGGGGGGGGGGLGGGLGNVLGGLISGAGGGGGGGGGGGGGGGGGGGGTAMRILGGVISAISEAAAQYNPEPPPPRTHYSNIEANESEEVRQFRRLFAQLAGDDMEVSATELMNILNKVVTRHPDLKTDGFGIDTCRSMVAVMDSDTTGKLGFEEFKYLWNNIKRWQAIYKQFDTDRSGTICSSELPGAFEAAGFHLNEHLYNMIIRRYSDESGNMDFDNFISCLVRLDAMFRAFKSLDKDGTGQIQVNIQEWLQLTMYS

Answered examples (4):
1) Cc1cc(C(=O)N[C@@H](Cc2ccccc2)C(=O)C(N)=O)n(-c2ccccc2)n1
< 3 µM
2) O=C(NC1CC1)C(=O)[C@H](Cc1ccccc1)NC(=O)c1scnc1-n1cc(-c2ccccc2)cn1
< 3 µM
3) Cn1ncc(C(=O)N[C@@H](Cc2ccccc2)C(=O)C(N)=O)c1-c1ccncn1
< 3 µM
4) NC(=O)C(=O)[C@H](Cc1ccccc1)NC(=O)c1ocnc1-c1ccccc1
< 3 µM

Query: Looking for the measured IC50 of `NC(=O)C(=O)[C@H](Cc1ccccc1)NC(=O)c1cnoc1-c1ccccc1` , can you help?
Reply: < 3 µM

Query: Report IC50 for `Cn1cc(C(=O)N[C@@H](Cc2ccccc2)C(=O)C(N)=O)c(-c2ccncn2)n1` please.
Reply: < 3 µM

Query: What value of measured IC50 is listed for `NC(=O)C(=O)[C@H](Cc1ccccc1)NC(=O)c1c(-c2ccccc2)oc2ccccc12` ?
Reply: < 3 µM

Query: Dear colleague, I am looking for the recorded IC50 of the following molecule: `Cc1cc(C(=O)N[C@@H](Cc2ccccc2)C(=O)C(N)=O)n(-c2ccc(CNC(=O)c3ccccc3)cc2)n1`
Reply: < 3 µM

---

target: human calpain 9 (Homo sapiens); construct: human calpain 9, residues 27-347, was over expressed in E. coli BL21 (DE3); hexa-histidine (N); made in house; host or cells: E. coli BL21 (DE3); assay: Calpain binding: crystal structure interaction distances, human calpain 9; conditions: non-polar interactions with human calpain 9
Sequence (O14815 27-347): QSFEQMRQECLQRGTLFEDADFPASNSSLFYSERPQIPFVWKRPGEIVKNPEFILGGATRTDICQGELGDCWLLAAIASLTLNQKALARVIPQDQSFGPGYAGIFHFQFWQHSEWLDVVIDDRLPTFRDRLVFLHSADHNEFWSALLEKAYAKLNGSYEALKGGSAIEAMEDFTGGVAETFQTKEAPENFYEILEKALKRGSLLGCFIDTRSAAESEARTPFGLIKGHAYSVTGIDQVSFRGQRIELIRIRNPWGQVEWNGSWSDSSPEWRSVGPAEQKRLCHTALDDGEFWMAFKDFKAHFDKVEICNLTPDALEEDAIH
METRIC NAME: Interaction Distances P1-Gly95 (Å)
Just the number please, in Å, no unit attached.

Some compounds with recorded Interaction Distances P1-Gly95:
1) NC(=O)C(=O)[C@H](Cc1ccccc1)NC(=O)c1snnc1-c1ccccc1
3.6
2) NC(=O)C(=O)[C@H](Cc1ccccc1)NC(=O)c1nsnc1-c1ccccc1
3.9
3) CCCC[C@H](NC(=O)c1oc(C)nc1-c1ccccc1)C(=O)C(N)=O
3.7

Here is another compound to look at.
Query: Suppose we examine the compound `Cn1cc(C(=O)N[C@@H](Cc2ccccc2)C(=O)C(N)=O)c(-c2ccccc2)n1` ; what Interaction Distances P1-Gly95 value has been reported?
Reply: 4.0

---

Here the recorded IC50 is given for each entry.
target: Human Calpain 9/NS1 (Homo sapiens, UniProt O14815); assay: Calpain inhibition continuous fluorescence (FRET) assay, Human Calpain 9/NS1; type: biochemical; conditions: read-out: Human Calpain 9/NS1 IC50
Sequence (O14815 whole entry, one chain of several): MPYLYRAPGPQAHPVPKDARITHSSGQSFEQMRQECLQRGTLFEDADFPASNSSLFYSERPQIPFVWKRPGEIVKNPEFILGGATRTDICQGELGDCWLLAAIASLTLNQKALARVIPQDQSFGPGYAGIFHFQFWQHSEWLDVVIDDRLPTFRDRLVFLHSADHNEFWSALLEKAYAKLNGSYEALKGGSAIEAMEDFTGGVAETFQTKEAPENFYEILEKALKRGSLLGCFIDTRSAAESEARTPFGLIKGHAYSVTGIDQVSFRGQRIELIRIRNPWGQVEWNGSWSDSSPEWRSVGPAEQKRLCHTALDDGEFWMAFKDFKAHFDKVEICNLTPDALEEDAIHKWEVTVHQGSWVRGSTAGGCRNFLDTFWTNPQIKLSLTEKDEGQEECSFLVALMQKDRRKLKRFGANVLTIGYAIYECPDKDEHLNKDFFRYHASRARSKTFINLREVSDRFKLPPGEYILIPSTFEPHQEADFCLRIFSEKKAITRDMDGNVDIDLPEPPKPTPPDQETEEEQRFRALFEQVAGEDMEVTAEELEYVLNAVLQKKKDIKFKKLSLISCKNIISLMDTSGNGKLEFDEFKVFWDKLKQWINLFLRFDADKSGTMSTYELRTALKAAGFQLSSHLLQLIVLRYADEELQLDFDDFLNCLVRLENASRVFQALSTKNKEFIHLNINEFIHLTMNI

1) Cn1cc(C(=O)NC(Cc2ccccc2)C(=O)C(N)=O)c(-c2ccccc2C(F)F)n1 (stereo not shown)
< 3 µM
2) Cc1cccnc1-n1nc(C(=O)NC(Cc2ccccc2)C(=O)C(N)=O)cc1C (stereo not shown)
3 to 10 µM
3) NC(=O)C(=O)[C@H](Cc1ccccc1)NC(=O)c1conc1-c1cccc(F)c1
< 3 µM

Query: # returns recorded IC50 (system: Human Calpain 9/NS1 (Homo sapiens, UniProt O14815)) for `C#Cc1nccc(-n2nc(C)cc2C(=O)N[C@@H](Cc2ccccc2)C(=O)CF)n1`
Reply: > 10 µM

---

Items are presented alongside their recorded Interaction Distances P2-His254.
biological target: human calpain 9 (Homo sapiens); construct: human calpain 9, residues 27-347, was over expressed in E. coli BL21 (DE3); hexa-histidine (N); made in house; host or cells: E. coli BL21 (DE3); assay: Calpain binding: crystal structure interaction distances, human calpain 9; conditions: non-polar interactions with human calpain 9
Answer format: numeric, Å implied, no suffix.

Answered examples (3):
1) CCCC[C@H](NC(=O)c1oc(C)nc1-c1ccccc1)C(=O)C(N)=O
4.2
2) NC(=O)C(=O)[C@H](Cc1ccccc1)NC(=O)c1nsnc1-c1ccccc1
3.7
3) Cn1cc(C(=O)N[C@@H](Cc2ccccc2)C(=O)C(N)=O)c(-c2ccccc2)n1
4.2

Query: // lookup Interaction Distances P2-His254 for `NC(=O)C(=O)[C@H](Cc1ccccc1)NC(=O)c1snnc1-c1ccccc1`
Reply: 4.2
